Molecular target: T1, recombinant human pro-sPLA2-GIB (pro form of group IB pancreatic phospholipase A2) (human, UniProt P04054 16-148)
T1 construct: also called pro-sPLA2-IB; proPLA2-GIB
T1 sequence (P04054 16-148): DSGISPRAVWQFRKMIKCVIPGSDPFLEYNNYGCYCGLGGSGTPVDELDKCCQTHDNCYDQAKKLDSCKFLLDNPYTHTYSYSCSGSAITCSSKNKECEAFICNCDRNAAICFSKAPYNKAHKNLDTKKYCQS
Assay: competition ELISA on coated pro-sPLA2-IB; competitor biotinylated 7A10
quantity-kind: percentage of signal (%)
Entry rule: numbers only, all in %.

Inquiry: Look up percentage of signal of #1C11 (antibody, IgG1, V domains shown, also called monoclonal antibody 1C11; #1C11 mAb) VH: EVKLQESGPELVKPGASVKISCKVSGYAFSSFWMNWVKQRPGKGLEWIGRIYPGDGDINYNGKFKGKATLTADKSSSTAYMQLSSLTSEDSAVYFCVRGWAWFPYWGQGTLVTVSA VL: EIVLTQSPAITSASLGQRVTISCSATSSVSYVHWYQQKSGTSPKPWIYEISRLASGVPARFSGSGSGTSYSLTISTMEAEDAAIYYCQSWNFPLLSFGAGTKLELKR and report it.
Reply text: 314
